Assay: Half life in rat at 2 mg/kg, iv
Format: ADME, organism-based
Parameters: dose 2 mg/kg, route intravenous
Settings: in vivo
assay.readout: half-life (h)

entry.smiles: N#CC1(c2ccccn2)CCN(Cc2cc3c(c4ccccc24)CN([C@H]2CCCC[C@@H]2O)C3=O)CC1
assay.readout: half-life
unit.text: h
val: 12

====

System: Plasma
Assay: Plasma concentration in B6SJL mouse contextual fear conditioning model at 1 mg/kg, ip
Type: ADME, organism-based
Parameters: dose 1 mg/kg, route intraperitoneal
Conditions: in vivo

entry.smiles: N#CC1(c2ccccn2)CCN(Cc2cc3c(c4ccccc24)CN([C@H]2CCCC[C@@H]2O)C3=O)CC1
tested.on: Plasma
unit.text: µM
concentration: 1.5
